Target: Sodium-dependent dopamine transporter (Rattus norvegicus)
Assay: Inhibitory binding activity against rat striatal tissue using [3H][…] as the radioligand.
Format: tissue-based, Striatum
measuredMetric: IC50 (nM)
Respond numerically; units are nM and should not be typed.

Request: Look at this compound and give its reported IC50. CN(C)CC1C2CCC(CC2)C1c1cccc(Cl)c1 (stereo in doubt; 6b)
Response: 36.8

Request: For NCC1C2CCC(C2)C1c1ccccc1 (stereo in doubt; 13a) , what is its reported IC50?
Response: 816

Request: So what's the measured IC50 for this one? CN(C)CC1C2CCC(CC2)C1c1ccc(Cl)c(Cl)c1 (stereo in doubt; 6d)
Response: 21.3

Request: GET /values?readout=IC50&item= NCC1C2CCC(CC2)C1c1ccccc1 (stereo in doubt; 7a)
Response: 270

Request: Tell me the measured IC50 of CN(C)CC1C2CCC(C2)C1c1ccccc1 (stereo in doubt; 10a) , please.
Response: 515

Request: I have this compound here, NCC1C2CCC(CC2)C1c1cccc(Cl)c1 (stereo in doubt; 5b) , and I need its recorded IC50.
Response: 204

Request: Which IC50 reading was recorded for the compound NCC1C2CCC(CC2)C1c1ccccc1 (stereo in doubt; 5a) ?
Response: 1200

Request: Data request, read-out IC50, for NCC1C2CCC(C2)C1c1ccccc1 (stereo in doubt; 11a)
Response: 2900

Request: Fill in: IC50 of COc1ccc(C2C3CCC(C3)C2CN)cc1 (stereo in doubt; 11g) is ___
Response: 1700

Request: What value of IC50 has been reported for the following compound? NCC1C2CCC(C2)C1c1ccc(Cl)c(Cl)c1 (stereo in doubt; 9d)
Response: 11.6

* * *

Target: Sodium-dependent dopamine transporter (Rattus norvegicus, UniProt P23977)
Sequence (P23977 whole entry): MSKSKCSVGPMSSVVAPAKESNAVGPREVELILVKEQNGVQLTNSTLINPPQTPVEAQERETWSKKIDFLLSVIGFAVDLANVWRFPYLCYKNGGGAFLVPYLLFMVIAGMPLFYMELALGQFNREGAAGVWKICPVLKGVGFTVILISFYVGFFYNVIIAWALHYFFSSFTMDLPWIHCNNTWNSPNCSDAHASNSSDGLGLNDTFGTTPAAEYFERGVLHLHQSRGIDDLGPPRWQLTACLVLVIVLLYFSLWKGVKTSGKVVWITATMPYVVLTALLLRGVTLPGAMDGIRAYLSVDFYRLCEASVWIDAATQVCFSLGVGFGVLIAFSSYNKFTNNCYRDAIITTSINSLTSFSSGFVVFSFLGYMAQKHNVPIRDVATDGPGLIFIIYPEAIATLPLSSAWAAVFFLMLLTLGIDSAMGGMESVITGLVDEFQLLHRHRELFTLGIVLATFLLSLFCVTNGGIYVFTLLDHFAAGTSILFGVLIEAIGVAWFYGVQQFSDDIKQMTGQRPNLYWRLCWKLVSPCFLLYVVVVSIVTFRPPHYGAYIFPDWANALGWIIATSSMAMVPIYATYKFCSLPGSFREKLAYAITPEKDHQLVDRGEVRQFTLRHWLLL
Assay: Inhibitory binding activity against rat striatal tissue using [3H][…] as the radioligand.
Assay type: tissue-based, Striatum
measuredMetric: IC50 (nM)
A number alone suffices; assume nM.

Request: What reported IC50 corresponds to CN(C)CC1C2CCC(CC2)C1c1ccccc1 (stereo in doubt; 8a) on Sodium-dependent dopamine transporter (Rattus norvegicus, UniProt P23977)?
Response: 313

Request: Notebook entry, Sodium-dependent dopamine transporter (Rattus norvegicus, UniProt P23977) assay: IC50 of CN(C)CC1C2CCC(CC2)C1c1ccccc1 (stereo in doubt; 6a) = ?
Response: 191

Request: Recall the recorded IC50 for COc1cccc(C2C3CCC(C3)C2CN)c1 (stereo in doubt; 9f) with Sodium-dependent dopamine transporter (Rattus norvegicus, UniProt P23977) and state it.
Response: 8820

Request: Provide value of IC50 for this record tested with Sodium-dependent dopamine transporter (Rattus norvegicus, UniProt P23977): NCC1C2CCC(C2)C1c1ccc(Cl)cc1 (stereo in doubt; 15c)
Response: 7.7

Request: API: value(readout= IC50, system= Sodium-dependent dopamine transporter (Rattus norvegicus, UniProt P23977), query= NCC1C2CCC(CC2)C1c1ccc(Cl)c(Cl)c1 (stereo in doubt; 7d) )
Response: 21.5

* * *

Please go through the items and note down their Discrimination ratio.
Target: Sodium-dependent dopamine transporter (Rattus norvegicus)
Experiment: Discrimination ratio of compound is the ratio of inhibitory activity against [3H]dopamine uptake over [3H][…] binding
Answer with a bare number; do not write a unit.

Request: Fill blank: measured Discrimination ratio of the compound COc1ccc(C2C3CCC(C3)C2CN)cc1 (stereo in doubt; 11g) is ____.
Response: 4.2

Request: Requested field: Discrimination ratio. Item: NCC1C2CCC(CC2)C1c1ccc(N)cc1 (centres undefined)
Response: 4.4

Request: Entry CN(C)CC1C2CCC(CC2)C1c1cccc(Cl)c1 (stereo in doubt; 6b) : reported Discrimination ratio = ?
Response: 5.1

Request: I would be grateful if you could share the reported Discrimination ratio for NCC1C2CCC(C2)C1c1ccc(Cl)cc1 (stereo in doubt; 9c) .
Response: 5

Where do these numbers come from? They come from ChEMBL document CHEMBL1132169.
